# Subject of test: human complement protein C3 (human, UniProt P01024 23-1663)
# Sequence (P01024 23-1663 limits assumed): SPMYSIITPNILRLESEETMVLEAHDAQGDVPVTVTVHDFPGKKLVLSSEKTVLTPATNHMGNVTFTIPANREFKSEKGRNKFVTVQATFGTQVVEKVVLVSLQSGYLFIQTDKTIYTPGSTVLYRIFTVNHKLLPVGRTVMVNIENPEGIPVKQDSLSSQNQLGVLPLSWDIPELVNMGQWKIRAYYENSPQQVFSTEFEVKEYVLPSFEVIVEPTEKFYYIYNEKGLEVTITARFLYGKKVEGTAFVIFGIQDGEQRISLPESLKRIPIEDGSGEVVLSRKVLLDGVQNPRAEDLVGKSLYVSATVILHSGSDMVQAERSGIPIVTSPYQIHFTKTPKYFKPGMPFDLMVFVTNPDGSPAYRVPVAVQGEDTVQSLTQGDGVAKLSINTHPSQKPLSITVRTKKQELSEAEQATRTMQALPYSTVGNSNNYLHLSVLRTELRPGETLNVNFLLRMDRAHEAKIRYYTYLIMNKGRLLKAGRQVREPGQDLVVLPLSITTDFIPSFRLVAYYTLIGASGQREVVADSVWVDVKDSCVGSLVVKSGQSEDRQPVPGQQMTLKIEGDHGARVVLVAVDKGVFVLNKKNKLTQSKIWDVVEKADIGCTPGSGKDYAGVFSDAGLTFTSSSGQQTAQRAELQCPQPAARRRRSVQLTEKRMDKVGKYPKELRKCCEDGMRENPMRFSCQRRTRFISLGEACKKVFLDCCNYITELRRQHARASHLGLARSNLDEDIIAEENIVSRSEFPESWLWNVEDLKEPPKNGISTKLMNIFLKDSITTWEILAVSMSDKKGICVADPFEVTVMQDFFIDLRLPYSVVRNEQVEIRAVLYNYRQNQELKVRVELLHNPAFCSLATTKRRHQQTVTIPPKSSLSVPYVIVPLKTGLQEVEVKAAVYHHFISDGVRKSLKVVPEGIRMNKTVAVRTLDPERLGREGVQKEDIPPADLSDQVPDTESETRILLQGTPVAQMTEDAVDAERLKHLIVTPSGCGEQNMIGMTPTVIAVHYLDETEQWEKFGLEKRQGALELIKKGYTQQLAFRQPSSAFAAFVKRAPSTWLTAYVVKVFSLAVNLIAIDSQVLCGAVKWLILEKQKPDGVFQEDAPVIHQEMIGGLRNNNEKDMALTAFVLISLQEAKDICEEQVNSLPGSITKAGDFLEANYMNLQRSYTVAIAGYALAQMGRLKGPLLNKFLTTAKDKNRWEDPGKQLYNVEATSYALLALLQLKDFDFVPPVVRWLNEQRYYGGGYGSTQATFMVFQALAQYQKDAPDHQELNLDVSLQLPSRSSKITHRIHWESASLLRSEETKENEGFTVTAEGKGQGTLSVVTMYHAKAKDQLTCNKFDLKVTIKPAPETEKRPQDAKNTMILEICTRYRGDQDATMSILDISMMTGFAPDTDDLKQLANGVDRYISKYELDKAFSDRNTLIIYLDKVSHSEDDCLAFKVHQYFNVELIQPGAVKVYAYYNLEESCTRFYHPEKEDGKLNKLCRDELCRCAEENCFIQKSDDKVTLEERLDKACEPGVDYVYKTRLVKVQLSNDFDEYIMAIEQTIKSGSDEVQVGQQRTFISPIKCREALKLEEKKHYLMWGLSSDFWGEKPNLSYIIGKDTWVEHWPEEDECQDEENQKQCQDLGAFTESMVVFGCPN
# Test description: cell-based or functional assay
Bridge positions count the residues as written; N and C are the ends.
Measurement kind: C5b-9 ELISA IC50 (nM)
# output: bare number, implied unit nM

stdin: Could you share which C5b-9 ELISA IC50 value was measured for Ac-NNLCVWQDWGAHRCT-NH2 (disulfide 4-14; SMILES CC(=O)N[C@@H](CC(N)=O)C(=O)N[C@@H](CC(N)=O)C(=O)N[C@@H](CC(C)C)C(=O)N[C@H]1CSSC[C@@H](C(=O)N[C@H](C(N)=O)[C@@H](C)O)NC(=O)[C@H](CCCNC(=N)N)NC(=O)[C@H](Cc2c[nH]cn2)NC(=O)[C@H](C)NC(=O)CNC(=O)[C@H](Cc2c[nH]c3ccccc23)NC(=O)[C@H](CC(=O)O)NC(=O)[C@H](CCC(N)=O)NC(=O)[C@H](Cc2c[nH]c3ccccc23)NC(=O)[C@H](C(C)C)NC1=O) [Peptide 3.2, Ac-NN-LCVWQDWGAHRCT-NH2] ?
stdout: 500
